Recorded values, source patent US20190367619A1.

system.under.test: T1, human galectin-10-His (human)
T1 construct: The last M of the tag may be Met1 of galectin-10; also called humanGal10-His; hGal10
T1 chain: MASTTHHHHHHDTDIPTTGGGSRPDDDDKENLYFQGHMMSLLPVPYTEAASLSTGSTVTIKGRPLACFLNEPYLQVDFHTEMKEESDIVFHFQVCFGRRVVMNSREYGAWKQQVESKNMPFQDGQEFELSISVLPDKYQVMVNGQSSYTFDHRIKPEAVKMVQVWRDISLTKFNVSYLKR
assay.name: ELISA, coated antigen 0.5 ug/mL
pEC50: −log10 of the molar value.

binder	pEC50
10A06 mouse IgG1 (antibody, V domains shown, VH and VL cloned in frame with mouse IgG1 constant domains; also called 10A06 mIgG1) VH: QVQLVESGGGLVQPGGSLRLSCAASGFTFGNYDMSWVRQAPGKGPEWVSDINSGGGSTYYADSVKGRFTISRDNAKNSLLLQMNSLKPEDTAVYYCATGYTGYYYWGQGTQVTVSS VL: QTVVTQEPSLSVSPGGTVTLTCGLSSGSVTSSNYPAWYQQTPGQAPRALIYSINSRHSGVPDRFSGSISGNKAALTITGAQAEDEADYYCTLYMGTGSNNVVFGGGTHLTVL	9.20
8H11 mouse IgG1 (antibody, V domains shown, VH and VL cloned in frame with mouse IgG1 constant domains; also called 8H11 mIgG1) VH: ELQLVESGGGLVQPGGSLRLSCAASGFTFSTNYMNWVRQAPGKGLEWVSGITSGGGRTYYADSVKGRFTISRDNAKNTLYLQMNSLKPEDTALYYCARTDHAWLDAWGQGTLVTVSS VL: QAGLTQPPSVSGTLGKTVTISCAGTSSDVGYGNYVSWYQQLPGTAPKLLIYAVSTRASGIPDRFSGSKSGNTASLTISGLLSEDEADYYCASYRSSNNYVFGGGTKLTVL	8.84
10D02 mouse IgG1 (antibody, V domains shown, VH and VL cloned in frame with mouse IgG1 constant domains; also called 10D02 mIgG1) VH: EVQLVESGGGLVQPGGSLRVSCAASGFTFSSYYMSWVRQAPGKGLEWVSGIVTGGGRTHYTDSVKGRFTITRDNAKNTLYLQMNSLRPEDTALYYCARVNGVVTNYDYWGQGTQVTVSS VL: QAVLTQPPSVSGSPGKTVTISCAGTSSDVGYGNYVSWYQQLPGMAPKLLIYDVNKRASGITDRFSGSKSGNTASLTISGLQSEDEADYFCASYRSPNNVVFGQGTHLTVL	8.45
